Target: T1, Human soluble IL-6R (human, UniProt P08887 20-358)
T1 construct: Soluble recombinant form; biotinylated in some assays; also called hIL-6R; human IL-6R
T1 sequence (looked up): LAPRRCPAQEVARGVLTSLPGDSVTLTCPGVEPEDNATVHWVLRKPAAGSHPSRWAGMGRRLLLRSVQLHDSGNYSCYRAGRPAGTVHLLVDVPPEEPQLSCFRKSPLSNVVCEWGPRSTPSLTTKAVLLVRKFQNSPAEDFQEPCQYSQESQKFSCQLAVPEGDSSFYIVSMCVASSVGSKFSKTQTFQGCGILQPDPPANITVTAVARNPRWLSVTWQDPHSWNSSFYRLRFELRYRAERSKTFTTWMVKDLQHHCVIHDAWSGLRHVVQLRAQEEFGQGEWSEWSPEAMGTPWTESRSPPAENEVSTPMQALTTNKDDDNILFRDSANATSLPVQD
Test: Alphascreen, inhibition of bio-IL-6 binding to IL-6R
pIC50: −log10 of the molar value.

>  <Binder>
IL6R14 (VHH, also called PMP40H5; not shown: C-terminal c-myc and (His)6 tags) VHH: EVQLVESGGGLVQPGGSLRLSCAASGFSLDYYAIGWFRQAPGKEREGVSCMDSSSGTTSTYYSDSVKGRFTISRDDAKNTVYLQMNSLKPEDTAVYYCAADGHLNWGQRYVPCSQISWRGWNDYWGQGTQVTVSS

>  <pIC50>
9.65

$$$$
>  <Binder>
IL6R02 (VHH, also called PMP30C11; not shown: C-terminal c-myc and (His)6 tags) VHH: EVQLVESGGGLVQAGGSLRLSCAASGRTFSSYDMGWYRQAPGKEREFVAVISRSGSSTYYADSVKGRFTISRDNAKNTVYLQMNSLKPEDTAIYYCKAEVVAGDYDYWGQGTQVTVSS

>  <pIC50>
8.77

$$$$
>  <Binder>
IL6R12 (VHH, also called PMP35F4; not shown: C-terminal c-myc and (His)6 tags) VHH: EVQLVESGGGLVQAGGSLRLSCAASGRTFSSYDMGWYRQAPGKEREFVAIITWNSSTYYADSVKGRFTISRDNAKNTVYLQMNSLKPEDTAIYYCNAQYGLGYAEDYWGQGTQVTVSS

>  <pIC50>
9.29

$$$$
>  <Binder>
IL6R01 (VHH, also called PMP28E11; not shown: C-terminal c-myc and (His)6 tags) VHH: EVQLVESGGGLVQPGGSLRLSCAASGFPLDYYAIGWFRQAPGKEREGVSCISSSDGSTYYADSVKGRFTISRDNAKNTVYLQMNSLKPEDTAVYYCALVHTTAQATGVPQREYEYEWWGQGTQVTVSS

>  <pIC50>
9.14

$$$$
>  <Binder>
IL6R10 (VHH, also called PMP35C10; not shown: C-terminal c-myc and (His)6 tags) VHH: EVQLVESGGGLVQAGGSLRLSCAASGRTFSSYDMGWYRQAPGKEREFVAVIHWSSGSTYYADPVKGRFTISRDNAKNTVYLQMNSLKPEDTAIYYCNAFLPGPEGFHDYWGQGTQVTVSS

>  <pIC50>
9.22

$$$$
>  <Binder>
IL6R03 (VHH, also called PMP31A4; not shown: C-terminal c-myc and (His)6 tags) VHH: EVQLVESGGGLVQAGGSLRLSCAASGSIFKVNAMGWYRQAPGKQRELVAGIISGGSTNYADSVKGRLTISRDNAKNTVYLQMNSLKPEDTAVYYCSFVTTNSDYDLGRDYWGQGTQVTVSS

>  <pIC50>
9.15

$$$$
>  <Binder>
IL6R08 (VHH, also called PMP34A12; not shown: C-terminal c-myc and (His)6 tags) VHH: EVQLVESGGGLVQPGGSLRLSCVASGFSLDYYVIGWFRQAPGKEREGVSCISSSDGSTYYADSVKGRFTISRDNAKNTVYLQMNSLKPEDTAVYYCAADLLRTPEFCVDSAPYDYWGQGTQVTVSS

>  <pIC50>
8.93

$$$$
>  <Binder>
IL6R06 (VHH, also called PMP32E2; not shown: C-terminal c-myc and (His)6 tags) VHH: EVQLVESGGGLVQAGGSLRLSCAASGNIFDDNTMGWTWNRQPPGKQRELVAIIATDGSTNYADSVKGRFTISRDNAKNTVYLQMNSLKPEDTAVYYCNLFSLRLGRDYWGQGTQVTVSS

>  <pIC50>
8.92

$$$$
